- Tested on: Triticum aestivum
- assay text: Growth height of young cereal plants (Example 11, Table A)
- Assay type: in vivo
- test context: soil treatment, 2.0 kg/ha
measure: Growth height (cm)
Reply numerically in cm, unit not repeated.

Entry O=[N+]([O-])c1cccc(N2N=NC3C4CC(C5N=NC45)C32)c1 (stereo not drawn) — recorded Growth height = 13

Entry C[N+](C)(C)CCCl.[Cl-] [CCC, reference compound] — recorded Growth height = 33

Entry Brc1cccc(N2N=NC3C4CC(C5N=NC45)C32)c1 (stereo not drawn) [drawing 366] — recorded Growth height = 16
